Each entry below carries its measured GI50, system: IGROV-1.
Numeric only. Scale: µM

SMILES_NOTATION: c1cncc(CCNc2nc(-c3cccc4[nH]ncc34)cc(N3CCOCC3)n2)c1
ASSAY_SYSTEM: IGROV-1
READOUT_LABEL: GI50
DATA_VALUE: 2.9

SMILES_NOTATION: CS(=O)(=O)Nc1cccc(-c2cc(NCCc3ccncc3)nc(N3CCOCC3)n2)c1
ASSAY_SYSTEM: IGROV-1
READOUT_LABEL: GI50
DATA_VALUE: 15

SMILES_NOTATION: CS(=O)(=O)Nc1cccc(-c2cc(NCCc3cccnc3)nc(N3CCOCC3)n2)c1
ASSAY_SYSTEM: IGROV-1
READOUT_LABEL: GI50
DATA_VALUE: 11.6

SMILES_NOTATION: c1ccc(COc2nc(-c3cccc4[nH]ncc34)cc(N3CCOCC3)n2)nc1
ASSAY_SYSTEM: IGROV-1
READOUT_LABEL: GI50
DATA_VALUE: 2.3

SMILES_NOTATION: Oc1cccc(-c2nc(-c3cccnc3)cc(N3CCOCC3)n2)c1
ASSAY_SYSTEM: IGROV-1
READOUT_LABEL: GI50
DATA_VALUE: 0.63

Supply recorded GI50 for `c1ccc(CCNc2nc(-c3cccc4[nH]ncc34)cc(N3CCOCC3)n2)nc1` here.
2.7

Supply recorded GI50 for `c1ccc(CCNc2cc(-c3ccc4cc[nH]c4c3)nc(N3CCOCC3)n2)nc1` here.
12

Supply recorded GI50 for `CS(=O)(=O)Nc1cccc(-c2cc(N3CCOCC3)nc(NCCc3ccncc3)n2)c1` here.
6.2

Supply recorded GI50 for `CS(=O)(=O)Nc1ccc(-c2cc(OCc3ccccn3)nc(N3CCOCC3)n2)cc1` here.
16

Supply recorded GI50 for `c1cc(-c2cc(N3CCOCC3)nc(NCCc3ccncc3)n2)c2cn[nH]c2c1` here.
1.5

====

List of IC50 values.
- ASSAY_SYSTEM: Phosphatidylinositol 4,5-bisphosphate 3-kinase catalytic subunit gamma isoform (Homo sapiens, UniProt P48736)
- Sequence (P48736 whole entry, canonical isoform): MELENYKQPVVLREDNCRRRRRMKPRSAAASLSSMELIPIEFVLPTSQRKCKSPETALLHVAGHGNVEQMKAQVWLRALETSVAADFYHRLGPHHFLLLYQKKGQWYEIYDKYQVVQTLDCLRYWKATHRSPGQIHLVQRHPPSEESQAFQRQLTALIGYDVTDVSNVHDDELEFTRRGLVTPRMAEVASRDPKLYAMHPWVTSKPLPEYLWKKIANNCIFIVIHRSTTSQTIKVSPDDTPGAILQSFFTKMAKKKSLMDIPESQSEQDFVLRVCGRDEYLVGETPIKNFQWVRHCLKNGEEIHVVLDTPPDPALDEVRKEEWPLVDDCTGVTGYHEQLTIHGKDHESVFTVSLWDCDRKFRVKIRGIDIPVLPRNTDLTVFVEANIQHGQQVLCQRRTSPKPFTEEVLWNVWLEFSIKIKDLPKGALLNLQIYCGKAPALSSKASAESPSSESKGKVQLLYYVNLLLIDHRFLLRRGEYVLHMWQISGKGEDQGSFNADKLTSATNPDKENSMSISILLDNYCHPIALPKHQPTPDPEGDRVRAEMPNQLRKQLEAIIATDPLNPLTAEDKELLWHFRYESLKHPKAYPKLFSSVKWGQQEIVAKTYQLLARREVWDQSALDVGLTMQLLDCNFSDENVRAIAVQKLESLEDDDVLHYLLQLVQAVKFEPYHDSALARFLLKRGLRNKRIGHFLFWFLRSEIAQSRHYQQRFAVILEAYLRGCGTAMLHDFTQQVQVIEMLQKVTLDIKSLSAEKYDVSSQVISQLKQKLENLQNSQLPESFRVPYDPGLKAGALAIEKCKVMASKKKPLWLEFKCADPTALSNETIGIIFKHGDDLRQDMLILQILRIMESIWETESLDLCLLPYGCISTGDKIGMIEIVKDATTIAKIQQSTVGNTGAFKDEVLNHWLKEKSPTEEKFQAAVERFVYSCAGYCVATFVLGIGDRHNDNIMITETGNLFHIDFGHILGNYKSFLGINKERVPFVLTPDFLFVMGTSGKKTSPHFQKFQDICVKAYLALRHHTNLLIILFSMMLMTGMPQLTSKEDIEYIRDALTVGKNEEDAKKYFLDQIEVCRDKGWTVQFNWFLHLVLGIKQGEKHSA

SMILES_NOTATION: Oc1cccc(-c2cc(NCCc3ccncc3)nc(N3CCOCC3)n2)c1
IC50: 0.74 µM

SMILES_NOTATION: Oc1cccc(-c2cc(NCCc3cccnc3)nc(N3CCOCC3)n2)c1
IC50: 0.96 µM

SMILES_NOTATION: Oc1cccc(-c2nc(-c3ccccn3)cc(N3CCOCC3)n2)c1
IC50: 0.044 µM

SMILES_NOTATION: Oc1cccc(-c2nc(-c3ccncc3)cc(N3CCOCC3)n2)c1
IC50: 0.15 µM

SMILES_NOTATION: Oc1cccc(-c2cc(NCc3ccccn3)nc(N3CCOCC3)n2)c1
IC50: 7.6 µM

Supply recorded IC50 for `Oc1cccc(-c2cc(N3CCOCC3)nc(NCCc3ccccn3)n2)c1` here.
0.38 µM

====

- Test system: IGROV-1
Returns: string. Value is Yes if measured GI50 is below 2000 nM, and No if it is greater than or equal to it.

Here are 2 molecules together with their reported answers.
SMILES_NOTATION: Oc1cccc(-c2cc(N3CCOCC3)nc(NCCc3ccncc3)n2)c1
CATEGORY_LABEL: Yes

SMILES_NOTATION: c1ccc(COc2cc(-c3cccc4[nH]ncc34)nc(N3CCOCC3)n2)nc1
CATEGORY_LABEL: Yes

Please state whether GI50 is below 2000 nM for `Oc1cccc(-c2cc(NCCc3cccnc3)nc(N3CCOCC3)n2)c1`
Yes

Please state whether GI50 is below 2000 nM for `c1cncc(CCNc2cc(-c3cccc4[nH]ncc34)nc(N3CCOCC3)n2)c1`
No

Please state whether GI50 is below 2000 nM for `Oc1cccc(-c2cc(NCCc3ccccn3)nc(N3CCOCC3)n2)c1`
No

====

- ASSAY_SYSTEM: Phosphatidylinositol 4,5-bisphosphate 3-kinase catalytic subunit alpha isoform (Homo sapiens)
List of IC50 values.
Numeric only. Scale: µM

Worked cases, answers included:
SMILES_NOTATION: Oc1cccc(-c2cc(OCc3ccccn3)nc(N3CCOCC3)n2)c1
DATA_VALUE: 0.11
//
SMILES_NOTATION: Oc1cccc(-c2cc(N3CCOCC3)nc(NCc3ccccn3)n2)c1
DATA_VALUE: 1
//
SMILES_NOTATION: CS(=O)(=O)Nc1cccc(-c2cc(N3CCOCC3)nc(NCCc3ccncc3)n2)c1
DATA_VALUE: 9.1

Supply recorded IC50 for `c1cc(-c2cc(NCCc3ccncc3)nc(N3CCOCC3)n2)c2cn[nH]c2c1` here.
0.77

Supply recorded IC50 for `Oc1cccc(-c2cc(N3CCOCC3)nc(NCCc3cccnc3)n2)c1` here.
0.25

====

- Test system: IGROV-1
READOUT_LABEL: GI50 (nM)
Numeric only. Scale: nM

Worked cases, answers included:
SMILES_NOTATION: c1ccc(COc2nc(-c3ccc4cc[nH]c4c3)cc(N3CCOCC3)n2)nc1
GI50 (nM): 9000
--
SMILES_NOTATION: CS(=O)(=O)Nc1cccc(-c2cc(NCCc3ccccn3)nc(N3CCOCC3)n2)c1
GI50 (nM): 15000

Name the recorded GI50 of `Oc1cccc(-c2cc(OCc3ccccn3)nc(N3CCOCC3)n2)c1` , assay system IGROV-1.
1500

Name the recorded GI50 of `Oc1cccc(-c2cc(N3CCOCC3)nc(OCc3ccccn3)n2)c1` , assay system IGROV-1.
2500

Name the recorded GI50 of `Oc1cccc(-c2nc(-c3ccncc3)cc(N3CCOCC3)n2)c1` , assay system IGROV-1.
1200

Name the recorded GI50 of `c1cc(-c2cc(NCCc3ccncc3)nc(N3CCOCC3)n2)c2cn[nH]c2c1` , assay system IGROV-1.
2700

====

- ASSAY_SYSTEM: Phosphatidylinositol 4,5-bisphosphate 3-kinase catalytic subunit alpha isoform (Homo sapiens, UniProt P42336)
- Sequence (P42336 whole entry, canonical isoform): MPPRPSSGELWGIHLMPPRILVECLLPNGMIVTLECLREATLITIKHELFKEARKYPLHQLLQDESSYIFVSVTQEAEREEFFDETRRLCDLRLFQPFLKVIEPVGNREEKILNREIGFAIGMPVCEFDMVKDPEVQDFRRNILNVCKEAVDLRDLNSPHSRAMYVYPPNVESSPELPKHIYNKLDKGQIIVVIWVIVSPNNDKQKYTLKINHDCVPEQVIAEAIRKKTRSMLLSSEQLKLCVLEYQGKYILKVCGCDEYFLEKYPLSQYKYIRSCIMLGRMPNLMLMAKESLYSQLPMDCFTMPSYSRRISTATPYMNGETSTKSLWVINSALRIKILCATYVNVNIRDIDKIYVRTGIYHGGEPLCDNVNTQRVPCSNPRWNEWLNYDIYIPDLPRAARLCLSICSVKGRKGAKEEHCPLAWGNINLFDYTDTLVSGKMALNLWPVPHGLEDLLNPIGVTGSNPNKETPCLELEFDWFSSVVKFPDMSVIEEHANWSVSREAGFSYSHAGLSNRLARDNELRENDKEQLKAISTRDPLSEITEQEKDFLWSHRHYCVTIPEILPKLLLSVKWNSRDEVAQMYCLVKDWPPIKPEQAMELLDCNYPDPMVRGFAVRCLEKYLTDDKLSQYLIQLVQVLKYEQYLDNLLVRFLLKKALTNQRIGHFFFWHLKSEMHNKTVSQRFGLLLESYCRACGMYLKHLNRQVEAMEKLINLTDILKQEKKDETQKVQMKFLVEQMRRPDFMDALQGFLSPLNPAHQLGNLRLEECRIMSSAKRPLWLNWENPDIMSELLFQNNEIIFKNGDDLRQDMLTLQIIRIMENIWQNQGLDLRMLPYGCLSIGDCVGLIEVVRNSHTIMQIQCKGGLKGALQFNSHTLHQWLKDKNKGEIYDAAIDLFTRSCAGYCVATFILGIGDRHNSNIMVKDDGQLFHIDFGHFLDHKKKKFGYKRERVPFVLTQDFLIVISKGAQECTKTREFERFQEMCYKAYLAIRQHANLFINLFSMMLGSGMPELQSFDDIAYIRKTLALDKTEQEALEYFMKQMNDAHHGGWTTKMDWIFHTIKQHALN
READOUT_LABEL: pIC50
Keep in mind that pIC50 stands for -log10 of concentration in molar terms.

Worked cases, answers included:
SMILES_NOTATION: Oc1cccc(-c2cc(NCc3ccncc3)nc(N3CCOCC3)n2)c1
pIC50: 6.00
--
SMILES_NOTATION: c1cncc(CCNc2nc(-c3cccc4[nH]ncc34)cc(N3CCOCC3)n2)c1
pIC50: 6.09
--
SMILES_NOTATION: c1ccc(COc2cc(-c3cccc4[nH]ncc34)nc(N3CCOCC3)n2)nc1
pIC50: 6.30

Supply recorded pIC50 for `Oc1cccc(-c2nc(-c3ccncc3)cc(N3CCOCC3)n2)c1` here.
6.85

Supply recorded pIC50 for `Oc1cccc(-c2cc(NCCc3ccncc3)nc(N3CCOCC3)n2)c1` here.
6.85

====

- ASSAY_SYSTEM: Phosphatidylinositol 4,5-bisphosphate 3-kinase catalytic subunit alpha isoform (Homo sapiens)
READOUT_LABEL: pIC50
Keep in mind that pIC50 stands for -log10 of concentration in molar terms.

SMILES_NOTATION: c1cncc(CCNc2cc(-c3cccc4[nH]ncc34)nc(N3CCOCC3)n2)c1
pIC50: 6.18

SMILES_NOTATION: Oc1cccc(-c2cc(NCc3ccccn3)nc(N3CCOCC3)n2)c1
pIC50: 6.05

SMILES_NOTATION: Oc1cccc(-c2cc(N3CCOCC3)nc(OCc3ccccn3)n2)c1
pIC50: 6.07

SMILES_NOTATION: Oc1cccc(-c2cc(N3CCOCC3)nc(NCc3cccnc3)n2)c1
pIC50: 6.06

Supply recorded pIC50 for `Oc1cccc(-c2cc(N3CCOCC3)nc(NCCc3ccncc3)n2)c1` here.
6.64

====

List of IC50 values.
- ASSAY_SYSTEM: Phosphatidylinositol 4,5-bisphosphate 3-kinase catalytic subunit alpha isoform (Homo sapiens, UniProt P42336)

Worked cases, answers included:
SMILES_NOTATION: Clc1ccc(-c2cc(N3CCOCC3)nc(-c3cccc(OCc4ccccc4)c3)n2)cc1
IC50: > 10 µM
//
SMILES_NOTATION: c1ccc(CCNc2cc(-c3ccc4cc[nH]c4c3)nc(N3CCOCC3)n2)nc1
IC50: > 10 µM
//
SMILES_NOTATION: c1cc(CCNc2cc(-c3ccc4cc[nH]c4c3)nc(N3CCOCC3)n2)ccn1
IC50: > 10 µM
//
SMILES_NOTATION: c1ccc(COc2nc(-c3ccc4cc[nH]c4c3)cc(N3CCOCC3)n2)nc1
IC50: 5.2 µM
//
SMILES_NOTATION: c1cncc(CCNc2cc(-c3ccc4cc[nH]c4c3)nc(N3CCOCC3)n2)c1
IC50: > 10 µM
//
SMILES_NOTATION: Oc1cccc(-c2nc(-c3ccc(Cl)cc3)cc(N3CCOCC3)n2)c1
IC50: 0.69 µM
//
SMILES_NOTATION: Oc1cccc(-c2cc(N3CCOCC3)nc(NCc3ccncc3)n2)c1
IC50: 0.86 µM
//
SMILES_NOTATION: c1cc(-c2cc(N3CCOCC3)nc(NCCc3ccncc3)n2)c2cn[nH]c2c1
IC50: 0.44 µM
//
SMILES_NOTATION: c1cncc(CCNc2nc(-c3ccc4cc[nH]c4c3)cc(N3CCOCC3)n2)c1
IC50: 7.2 µM
//
SMILES_NOTATION: CS(=O)(=O)Nc1ccc(-c2cc(OCc3ccccn3)nc(N3CCOCC3)n2)cc1
IC50: > 10 µM

Supply recorded IC50 for `c1cc(CCNc2nc(-c3ccc4cc[nH]c4c3)cc(N3CCOCC3)n2)ccn1` here.
> 10 µM

Supply recorded IC50 for `CS(=O)(=O)Nc1cccc(-c2cc(NCCc3ccncc3)nc(N3CCOCC3)n2)c1` here.
> 10 µM

Supply recorded IC50 for `Clc1ccc(-c2cc(N3CCOCC3)nc(-c3cccc(OCc4ccccc4)c3)n2)cc1Cl` here.
> 10 µM

Supply recorded IC50 for `CS(=O)(=O)Nc1cccc(-c2cc(NCCc3ccccn3)nc(N3CCOCC3)n2)c1` here.
> 10 µM

Supply recorded IC50 for `CS(=O)(=O)Nc1cccc(-c2cc(NCCc3cccnc3)nc(N3CCOCC3)n2)c1` here.
> 10 µM

Supply recorded IC50 for `CS(=O)(=O)Nc1cccc(-c2cc(N3CCOCC3)nc(NCCc3cccnc3)n2)c1` here.
> 10 µM
